These measurements were taken from patent US9546153B2.

For IRAK4 (Homo sapiens (Human), UniProt Q9NWZ3), measured IC50 is reported for the entries below.
property: IC50 (nM)

A = Cc1cn2nc(Nc3cc(NC4CC4)c(C(=O)NC[C@@H](F)C(C)(C)O)cn3)ccc2n1 [Example 278]
B = CC(C)(O)[C@H](F)CNC(=O)c1cnc(Nc2ccc3ncsc3c2)cc1NC1C2CCCC1CCC2 (some centres unmarked) [Example 419]
[Q] Between the entries labelled A and B , which has a larger IC50 value on record? Write the label of whichever entry you select.
[A] A

---

pIC50: −log10 of the molar value.
For UniProtKB Q9NWZ3, measured pIC50 is reported for the entries below.
property: pIC50

Here are 6 compounds together with their reported answers.
[Q] # input compound: CC(O)([C@H](F)CNC(=O)c1cnc(Nc2ccc3ncsc3c2)cc1N[C@@H]1CCC[C@H]1O)C(F)(F)F (some centres unmarked) ; wanted: its pIC50
[A] 8.39

[Q] Also CC(C)(O)[C@H](F)CNC(=O)c1cnc(Nc2nc3ccnn3cc2F)cc1NC1CCC(F)C1 (some centres unmarked) ?
[A] 8.52

[Q] Also CC(C)(F)CNc1cc(Nc2cc3scnc3cn2)ncc1C(=O)NC[C@@H](F)C(C)(C)O ?
[A] 8.33

[Q] Also CC(C)(O)[C@H](F)CNC(=O)c1cnc(Nc2ccc3ncsc3n2)cc1NC1CCOCC1F (some centres unmarked) ?
[A] 7.96

[Q] Also CC(C)(O)[C@H](F)CNC(=O)c1cnc(Nc2cc3scnc3cc2F)cc1NC1CCCOC1 (some centres unmarked) [Example 518] ?
[A] 8.42

[Q] Also CC(CO)Nc1cc(Nc2nc3scnc3cc2F)ncc1C(=O)NC[C@@H](F)C(C)(C)O (some centres unmarked) ?
[A] 8.47

a = CC(C)(O)[C@H](F)CNC(=O)c1cnc(Nc2ccc3ncsc3c2)cc1N[C@@H](c1ccccc1)[C@H](O)CO
b = CC(C)Nc1cc(Nc2ccn3ncc(Cl)c3n2)ncc1C(=O)NC[C@@H](F)C(C)(C)O [Example 243]
[Q] Between the entries labelled a and b , which has a larger pIC50 value on record? Write the label of whichever entry you select.
[A] a
(a: 8.47, b: 8.26)
